Measured values drawn from paper PMC3227653 for this set.

koff values by entry
- TGT: Clostridium difficile toxin A (Clostridioides difficile …, UniProt P16154)
- ASSAY: SPR
- EXPERIMENTAL PARAMETERS: both partners purified
Return type: number; implicit unit s⁻¹.

Below are worked cases with known answers.
binder="A4.2m (VHH) VHH: QVKLEESGGGLVQAGGSLRLSCAASGRTFNTLSMGWFRQAPGKEREFVCAVSRSGGSTYYADSVKGRFTCSRDNAKNTVYLQMNSLKPEDTAVYYCAAAATKSNTTAYRLSFDYWGQGTQVTVSS" recorded_number=0.019
binder="A26.8m (VHH) VHH: QVKLEESGGGLVQAGGSLRLSCAASERTFSRYPVAWFRQAPGAEREFVCVISSTGTSTYYADSVKGRFTCSRDNAKVTVYLQMNNLKREDTAVYFCAVNSQRTRLQDPNEYDYWGQGTQVTVSS" recorded_number=0.028
binder="A20.1m (VHH) VHH: QVQLVESGGGLAQAGGSLRLSCAASGRTFSMDPMAWFRQPPGKEREFVCAGSSTGRTTYYADSVKGRFTCSRDNAKNTVYLQMNSLKPEDTAVYYCAAAPYGANWYRDEYAYWGQGTQVTVSS" recorded_number=0.0059

For the binder shown here, A5.1m (VHH) VHH: QVKLEESGGGLVQAGGSLRLSCAASGRTFSMYRMGWFRQAPGKEREFVCVITRNGSSTYYADSVKGRFTCSRDNAKNTVYLQMNSLKPEDTALYYCAATSGSSYLDAAHVYDYWGQGTQVTVSS , give the reported koff. 0.016
